Provide the reported DC50 of each item.
- study-target: BTK (Homo sapiens, UniProt Q06187)
- Construct: endogenous in cells; host or cells: Rec-1 cells (ATCC) / Ramos cells
- Sequence (Q06187 whole entry): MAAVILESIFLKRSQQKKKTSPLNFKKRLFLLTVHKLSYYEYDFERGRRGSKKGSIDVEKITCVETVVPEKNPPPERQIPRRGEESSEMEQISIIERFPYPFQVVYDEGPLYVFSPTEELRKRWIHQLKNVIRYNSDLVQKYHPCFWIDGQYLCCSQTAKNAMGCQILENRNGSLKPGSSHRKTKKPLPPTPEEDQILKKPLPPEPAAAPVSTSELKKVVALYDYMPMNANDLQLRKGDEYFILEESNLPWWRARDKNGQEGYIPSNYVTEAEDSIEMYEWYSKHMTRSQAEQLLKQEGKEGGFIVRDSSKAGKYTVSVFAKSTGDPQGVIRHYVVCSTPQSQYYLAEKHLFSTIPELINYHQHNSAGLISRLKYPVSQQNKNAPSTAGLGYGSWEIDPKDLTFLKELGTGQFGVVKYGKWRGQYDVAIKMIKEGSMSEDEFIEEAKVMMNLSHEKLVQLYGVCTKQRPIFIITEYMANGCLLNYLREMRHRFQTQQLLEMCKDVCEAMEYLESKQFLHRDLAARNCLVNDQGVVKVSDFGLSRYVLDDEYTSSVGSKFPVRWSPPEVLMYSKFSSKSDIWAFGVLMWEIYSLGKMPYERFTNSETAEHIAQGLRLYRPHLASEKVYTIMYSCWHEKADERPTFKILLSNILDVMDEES
- experiment-summary: BTK HTRF degradation assay
- Type: cell-based
- condition-label: treatment time 24 h; Cisbio Total-BTK HTRF; Rec-1 / Ramos cells
A complete answer gives the number and then names the unit.

Data request: Quick check: DC50 of C[C@H]1CN(C2CCN(c3ccc4c(c3)C(=O)N(C3CCC(=O)NC3=O)C4=O)CC2)CCN1c1ccc(Nc2cc(-c3ccnc(N4CCc5c(sc6c5CCCC6)C4=O)c3CO)cn(C)c2=O)nc1 (stereo partly shown) [Example 11] ?
Data returned: 9.49 nM

Data request: Please give the result for C[C@H]1CN(C2CCN(c3ccc4c(c3)C(=O)N(C3CCC(=O)NC3=O)C4=O)CC2)CCN1c1ccc(Nc2cc(-c3ccnc(N4CCc5c(sc6c5CCCC6)C4=O)c3CO)cn(C)c2=O)nc1 (stereo partly shown) [Example 9] too.
Data returned: 0.9 nM

Data request: And for C[C@H]1CN(C2CCN(c3ccc4c(c3)C(=O)N(C3CCC(=O)NC3=O)C4=O)CC2)CCN1c1ccc(Nc2cc(-c3ccnc(N4CCn5c(cc6c5CC(C)(C)C6)C4=O)c3CO)ccn2)nc1 (stereo partly shown) [Example 13] ?
Data returned: 4.4 nM

Data request: Queued: C[C@H]1CN([C@H]2CCN3c4ccc5c(c4OC[C@@H]3C2)C(=O)N(C2CCC(=O)NC2=O)C5=O)CCN1c1ccc(Nc2cc(-c3ccnc(N4CCn5c(cc6c5CC(C)(C)C6)C4=O)c3CO)cn(C)c2=O)nc1.Cl (stereo partly shown) [Example 18, hydrochloride]
Data returned: 22.8 nM

Data request: Further, for COc1ncc(-c2ccnc(N3CCn4c(cc5c4CC(C)(C)C5)C3=O)c2CO)cc1Nc1ccc(N2CCN(C3CCN(c4ccc5c(c4)C(=O)N(C4CCC(=O)NC4=O)C5=O)CC3)C[C@@H]2C)cn1 (stereo partly shown) [Example 14] ?
Data returned: 1.15 nM

Data request: Please answer likewise for C[C@H]1CN([C@H]2CCN3c4ccc5c(c4OC[C@H]3C2)C(=O)N(C2CCC(=O)NC2=O)C5=O)CCN1c1ccc(Nc2cc(-c3ccnc(N4CCn5c(cc6c5CC(C)(C)C6)C4=O)c3CO)cn(C)c2=O)nc1.Cl (stereo partly shown) [Example 17, hydrochloride]
Data returned: 3.58 nM

Data request: Let us now turn to C[C@H]1CN(C2CC(C#Cc3ccc4c(c3)C(=O)N(C3CCC(=O)NC3=O)C4=O)C2)CCN1c1ccc(Nc2cc(-c3ccnc(N4CCn5c(cc6c5CC(C)(C)C6)C4=O)c3CO)cn(C)c2=O)nc1 (stereo partly shown) [Example 3]
Data returned: 2.04 nM

Data request: Would you kindly repeat that for Cc1c(-c2cc(Nc3ccc(N4CCN(C5CCN(c6ccc7c(c6)C(=O)N(C6CCC(=O)NC6=O)C7=O)CC5)C[C@@H]4C)cn3)c(=O)n(C)c2)ccnc1N1CCn2c(cc3c2CC(C)(C)C3)C1=O (stereo partly shown) [Example 10] ?
Data returned: 4.63 nM

Data request: Let us now turn to C[C@H]1CN([C@@H]2CCN3c4ccc5c(c4OC[C@H]3C2)C(=O)N(C2CCC(=O)NC2=O)C5=O)CCN1c1ccc(Nc2cc(-c3ccnc(N4CCn5c(cc6c5CC(C)(C)C6)C4=O)c3CO)cn(C)c2=O)nc1 (stereo partly shown) [Example 16]
Data returned: 29.6 nM

Data request: Same question for C[C@H]1CN(C2CN(c3ccc4c(c3)C(=O)N(C3CCC(=O)NC3=O)C4=O)C2)CCN1c1ccc(Nc2cc(-c3ccnc(N4CCn5c(cc6c5CC(C)(C)C6)C4=O)c3CO)cn(C)c2=O)nc1 (stereo partly shown) [Example 1] please.
Data returned: 1.16 nM

Data request: Also need [2H]C([2H])([2H])n1cc(-c2ccnc(N3CCn4c(cc5c4CC(C)(C)C5)C3=O)c2CO)cc(Nc2ccc(N3CCN(C4CCN(c5ccc6c(c5)C(=O)N(C5CCC(=O)NC5=O)C6=O)CC4)C[C@@H]3C)cn2)c1=O (stereo partly shown) [Example 22] , thanks.
Data returned: 1.1 nM

Data request: Lookup C[C@H]1CN(C2CCN(c3ccc4c(c3)C(=O)N(C3CCC(=O)NC3=O)C4=O)CC2)CCN1c1ccc(Nc2cc(-c3ccnc(N4CCn5c(cc6c5CC(C)(C)C6)C4=O)c3CO)cn(C)c2=O)nc1 (stereo partly shown) [Example 2]
Data returned: 0.46 nM

Data request: C[C@H]1CN(C2CCN(c3ccc4c(c3)C(=O)N(C3CCC(=O)NC3=O)C4=O)CC2)CCN1c1ccc(Nc2cc(-c3ccnc(N4CCn5c(cc6c5CC(C)(C)C6)C4=O)c3CO)ncn2)nc1 (stereo partly shown) [Example 15] ?
Data returned: 21.7 nM

* * *

Could you please report measured Dmax % for the items listed next?
- study-target: BTK (Homo sapiens, UniProt Q06187)
- Construct: endogenous in cells; host or cells: Rec-1 cells (ATCC) / Ramos cells
- experiment-summary: BTK HTRF degradation assay
- Assay type: cell-based
- condition-label: treatment time 24 h; Cisbio Total-BTK HTRF; Rec-1 / Ramos cells
# number only, unit % dropped from output

Data request: What value of Dmax % has been reported for the following molecule? COc1ncc(-c2ccnc(N3CCn4c(cc5c4CC(C)(C)C5)C3=O)c2CO)cc1Nc1ccc(N2CCN(C3CCN(c4ccc5c(c4)C(=O)N(C4CCC(=O)NC4=O)C5=O)CC3)C[C@@H]2C)cn1 (some centres unmarked) [Example 14]
Data returned: 94

Data request: // repeat for C[C@H]1CN([C@H]2CCN3c4ccc5c(c4OC[C@H]3C2)C(=O)N(C2CCC(=O)NC2=O)C5=O)CCN1c1ccc(Nc2cc(-c3ccnc(N4CCn5c(cc6c5CC(C)(C)C6)C4=O)c3CO)cn(C)c2=O)nc1.Cl (some centres unmarked) [Example 17] and report
Data returned: 95

Data request: Now this one: Cc1c(-c2cc(Nc3ccc(N4CCN(C5CCN(c6ccc7c(c6)C(=O)N(C6CCC(=O)NC6=O)C7=O)CC5)C[C@@H]4C)cn3)c(=O)n(C)c2)ccnc1N1CCn2c(cc3c2CC(C)(C)C3)C1=O (some centres unmarked) [Example 10]
Data returned: 99

Data request: Try this molecule next: C[C@H]1CN(C2CCN(c3ccc4c(c3)C(=O)N(C3CCC(=O)NC3=O)C4=O)CC2)CCN1c1ccc(Nc2cc(-c3ccnc(N4CCc5c(sc6c5CCCC6)C4=O)c3CO)cn(C)c2=O)nc1 (some centres unmarked) [Example 11]
Data returned: 99

Data request: Try this molecule too: C[C@H]1CN(C2CCN(c3ccc4c(c3)C(=O)N(C3CCC(=O)NC3=O)C4=O)CC2)CCN1c1ccc(Nc2cc(-c3ccnc(N4CCn5c(cc6c5CC(C)(C)C6)C4=O)c3CO)ncn2)nc1 (some centres unmarked) [Example 15]
Data returned: 98

* * *

- study-target: BTK (Homo sapiens, UniProt Q06187)
- Construct: endogenous in cells; host or cells: Rec-1 cells (ATCC) / Ramos cells
- experiment-summary: BTK HTRF degradation assay
- Format: cell-based
- condition-label: treatment time 24 h; Cisbio Total-BTK HTRF; Rec-1 / Ramos cells
measurement-name: Dmax % (%)
Give the value in % but do not write % after it.

Data request: Bench note: what Dmax % did C[C@H]1CN(C2CCN(c3ccc4c(c3)C(=O)N(C3CCC(=O)NC3=O)C4=O)CC2)CCN1c1ccc(Nc2cc(-c3ccnc(N4CCc5c(sc6c5CCCC6)C4=O)c3CO)cn(C)c2=O)nc1 (some centres unmarked) [Example 9] show?
Data returned: 99

Data request: Same question for C[C@H]1CN(C2CN(c3ccc4c(c3)C(=O)N(C3CCC(=O)NC3=O)C4=O)C2)CCN1c1ccc(Nc2cc(-c3ccnc(N4CCn5c(cc6c5CC(C)(C)C6)C4=O)c3CO)cn(C)c2=O)nc1 (some centres unmarked) please.
Data returned: 100

Data request: Same question for C[C@H]1CN(C2CCN(c3ccc4c(c3)C(=O)N(C3CCC(=O)NC3=O)C4=O)CC2)CCN1c1ccc(Nc2cc(-c3ccnc(N4CCn5c(cc6c5CC(C)(C)C6)C4=O)c3CO)cn(C)c2=O)nc1 (some centres unmarked) please.
Data returned: 96

Data request: Would you mind doing C[C@H]1CN([C@H]2CCN3c4ccc5c(c4OC[C@@H]3C2)C(=O)N(C2CCC(=O)NC2=O)C5=O)CCN1c1ccc(Nc2cc(-c3ccnc(N4CCn5c(cc6c5CC(C)(C)C6)C4=O)c3CO)cn(C)c2=O)nc1.Cl (some centres unmarked) as well?
Data returned: 93

Data request: Moving on to C[C@H]1CN(C2CCN(c3ccc4c(c3)C(=O)N(C3CCC(=O)NC3=O)C4=O)CC2)CCN1c1ccc(Nc2cc(-c3ccnc(N4CCn5c(cc6c5CC(C)(C)C6)C4=O)c3CO)ccn2)nc1 (some centres unmarked)
Data returned: 98

Origin of the recorded values: patent US20240058457A1
